Data origin: ChEMBL document CHEMBL1157119

assay: Half life in human liver microsomes; format: ADME, Microsome
MEASURED_ATTRIBUTE: half-life (min)
Quick reminder: number only, in min, skip the unit.

**Query** Which half-life is listed for "CCc1nn(CCOCC(F)(F)F)c2c(Nc3ccncn3)nc(N3CCN[C@H](C)C3)nc12" ?
**Result** 42

----------
assay: Selectivity ratio of IC50 for PDE6 to IC50 for PDE5
Please note: Ratio IC50 exactly at 200 is condition not met. Only values below 200 get condition met.

**Query** Lab note: confirm whether the reported Ratio IC50 for this molecule is below 200, equality not counting. molecule: "Cc1ccnc(Nc2nc(N3CCNCC3)nc3c(C)nn(CCOCC(F)(F)F)c23)c1"
**Result** condition not met

**Query** Quick check: Ratio IC50 of "CCc1nn(CCOC(C)C)c2c(Nc3ccccn3)nc(N3CCNCC3)nc12" under 200?
**Result** condition met

**Query** Is it true that Ratio IC50 reported for "Cc1nn(CCOCC(F)(F)F)c2c(Nc3ccncn3)nc(N3CCCNCC3)nc12" is less than 200?
**Result** condition met

**Query** Does "CCc1nn(CCOCC(F)(F)F)c2c(Nc3ccncn3)nc(N(C)C3CCN(C)CC3)nc12" have Ratio IC50 strictly under 200?
**Result** condition not met

**Query** hey, is Ratio IC50 for "CCc1nn(CCOCC(F)(F)F)c2c(Nc3ccncn3)nc(N3CCCN(C)CC3)nc12" lower than 200 or not?
**Result** condition not met

**Query** Is it true that Ratio IC50 reported for "CCc1nn(CCOCC(F)(F)F)c2c(Nc3cc(C)ccn3)nc(N3CCNCC3)nc12" is less than 200?
**Result** condition not met

**Query** Field: below-cutoff. Rule: recorded Ratio IC50 strictly less than 200. Subject: "CCc1nn(CCOCC(F)(F)F)c2c(Nc3ccncn3)nc(N3CCCNCC3)nc12"
**Result** condition met

**Query** Lab log: compare recorded Ratio IC50 with 200; is it strictly lower for "CCc1nn(CCOCC(F)(F)F)c2c(Nc3ccncn3)nc(N3CCOCC3)nc12" ?
**Result** condition met

**Query** For "CCc1nn(CCOCC(F)(F)F)c2c(Nc3ccccn3)nc(N3CCNCC3)nc12" , is the recorded Ratio IC50 below the cut-off of 200?
**Result** condition met

**Query** Please determine if "CCc1nn(CCOCC(F)(F)F)c2c(Nc3ccncn3)nc(NCCN)nc12" is below 200 in terms of Ratio IC50.
**Result** condition not met

----------
experiment: Metabolic stability in human liver microsomes assessed as compound remaining after 30 mins; format: ADME, Microsome; conditions: read-out: Stability
For each of the compounds below, state its remaining at 0.5 h.
Unit % implied. Number only.

**Query** Using the record for "CCc1nn(CCOCC(F)(F)F)c2c(Nc3ccccn3)nc(N3CCNCC3)nc12" , report its remaining at 0.5 h.
**Result** 91

**Query** Item under review: "CCc1nn(CCOCC(F)(F)F)c2c(Nc3cc(C)ccn3)nc(N3CCNCC3)nc12" . Reported remaining at 0.5 h?
**Result** 80

**Query** What value of remaining at 0.5 h has been recorded for this entry: "Cc1ccnc(Nc2nc(N3CCNCC3)nc3c(C)nn(CCOCC(F)(F)F)c23)c1"
**Result** 75

**Query** Reported remaining at 0.5 h for "CCc1nn(CCOCC(F)(F)F)c2c(Nc3ccncn3)nc(N(C)C3CCN(C)CC3)nc12" : what is it?
**Result** 31
